Please provide measured cytotoxicity at 70.5 h for the entries that follow.
# Protocol: Human HepG2 cell viability assay in 384 well format
# Assay type: toxicity, cell-based
# Parameters: dose 125 nL, time 70.5 hour; concentration not given beside the values
# Conditions: HepG2 cells, read-out: Inhibition
Answers without a unit are incomplete; give the number and then its unit.

Prompt: May I ask what cytotoxicity at 70.5 h has been recorded for "Cc1noc(C)c1CN1CCn2c(CN3CCN(C)CC3)cnc2C1" ?
Response: -14.6%

Prompt: Follow-up item: "CCc1ccc(OCC(=O)N2CCN(CC)CC2)cc1"
Response: -6.61%

Prompt: Next up: CNC(=O)C1Cc2ccccc2CN1C(=O)CC(C)C (stereo not given)
Response: -10.1%

Prompt: What would you report for Cc1cccc(-c2noc(CN3CCCC3Cn3cncn3)n2)c1 (stereo not given) ?
Response: -1.92%

Prompt: Try this compound too: CCC(C)n1c(SCC(=O)N2CCOCC2)nc2cc(C)[nH]c2c1=O (stereo not given)
Response: 13.3%
